Biological target: T1, His-tagged human TREM2 ECD (human, UniProt Q9NZC2 19-172)
T1 construct: Biacore and HDX say only recombinant human TREM2 (ECD); also called recombinant human TREM2; hTREM2
T1 sequence: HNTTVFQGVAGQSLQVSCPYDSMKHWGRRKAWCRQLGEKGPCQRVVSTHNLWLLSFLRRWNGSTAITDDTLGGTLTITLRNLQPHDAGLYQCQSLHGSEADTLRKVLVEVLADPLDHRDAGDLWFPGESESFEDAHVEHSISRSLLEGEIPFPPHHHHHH
Test: SPR (Biacore)
ASSAY_METRIC: Kd (nM)
The reply should contain only the number, in nM.

CL0020123-8 (antibody, V domains shown, Humanized variant of CL0020123 (hVH QGES/1 m, Vk graft); also called Clone CL0020123-8) VH: QVQLVQSGAEVKKPGASVKVSCKASGFSIEDFYIHWVRQAPGQGLEWMGWIDPEQGESKYAPKFQGRVTITADTSTSTAYMELSSLRSEDTAVYYCHADHGNYGSTMDYWGQGTLVTVSS VL: DIQMTQSPSSLSASVGDRVTITCHASQHINVWLSWYQQKPGKAPKLLIYKASNLHTGVPSRFSGSGSGTDFTLTISSLQPEDFATYYCQQGQTYPRTFGQGTKVEIK :: 0.39

Form: binder = CL0020188-5 (antibody, V domains shown, Humanized variant of CL0020188 (hVH NA/graft, hVL NG/graft); also called Clone CL0020188-5) VH: EVQLVESGGGLVQPGGSLRLSCAASGFTFTDFYMSWVRQAPGKGLEWVSVIRNKANAYTAGYNPSVKGRFTISRDNSKNTLYLQMNSLRAEDTAVYYCARLTYGFDYWGQGTLVTVSS VL: DIVMTQTPLSLPVTPGEPASISCQSSKSLLHSNGKTYLNWYLQKPGQSPQLLIYWMSTRASGVPDRFSGSGSGTDFTLKISRVEAEDVGVYYCQQFLEYPFTFGQGTKVEIK ; Kd = 5.1

Data origin: patent US20220119522A1
